- SYSTEM: human ether a go-go related gene (hERG) K+ channel (Homo sapiens (Human))
- Sequence (Q12809 whole entry): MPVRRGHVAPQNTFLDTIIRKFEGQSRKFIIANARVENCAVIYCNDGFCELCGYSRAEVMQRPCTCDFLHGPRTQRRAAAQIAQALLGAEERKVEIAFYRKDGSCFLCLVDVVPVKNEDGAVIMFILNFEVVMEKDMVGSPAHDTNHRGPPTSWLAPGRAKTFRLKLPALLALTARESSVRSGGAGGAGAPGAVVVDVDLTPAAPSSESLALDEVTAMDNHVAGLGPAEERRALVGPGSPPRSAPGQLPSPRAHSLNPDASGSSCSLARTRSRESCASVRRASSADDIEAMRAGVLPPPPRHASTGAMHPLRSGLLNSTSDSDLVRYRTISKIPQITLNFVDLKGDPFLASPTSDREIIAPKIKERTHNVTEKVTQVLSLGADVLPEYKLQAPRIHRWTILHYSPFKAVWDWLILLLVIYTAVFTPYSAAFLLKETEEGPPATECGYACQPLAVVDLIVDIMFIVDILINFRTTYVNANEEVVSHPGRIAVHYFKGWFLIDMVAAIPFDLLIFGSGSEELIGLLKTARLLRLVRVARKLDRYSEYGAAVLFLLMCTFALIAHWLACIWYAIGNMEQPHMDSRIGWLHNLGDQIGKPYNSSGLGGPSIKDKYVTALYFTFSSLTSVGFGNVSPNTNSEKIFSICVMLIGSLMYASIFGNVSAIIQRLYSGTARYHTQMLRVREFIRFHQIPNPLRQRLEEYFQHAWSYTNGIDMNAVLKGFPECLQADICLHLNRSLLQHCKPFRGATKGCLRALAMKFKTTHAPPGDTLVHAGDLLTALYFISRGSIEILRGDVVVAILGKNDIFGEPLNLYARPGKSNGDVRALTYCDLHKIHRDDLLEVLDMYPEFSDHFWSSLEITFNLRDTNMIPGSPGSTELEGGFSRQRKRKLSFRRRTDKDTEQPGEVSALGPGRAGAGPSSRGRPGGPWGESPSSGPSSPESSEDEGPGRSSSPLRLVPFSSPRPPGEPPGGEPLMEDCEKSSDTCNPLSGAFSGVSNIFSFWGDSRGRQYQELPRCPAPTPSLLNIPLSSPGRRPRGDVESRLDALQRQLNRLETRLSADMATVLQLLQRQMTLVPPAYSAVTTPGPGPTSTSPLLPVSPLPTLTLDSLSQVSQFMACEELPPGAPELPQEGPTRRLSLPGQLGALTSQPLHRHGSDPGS
- PROTOCOL DESCRIPTION: hERG assay, IonWorks patch clamp electrophysiology
- Assay type: cell-based
- RUN PARAMETERS: Chinese Hamster Lung cell line stably expressing hERG; max assay concentration 11 uM
pIC50: −log10 of the molar value.
MEASURED PROPERTY: pIC50

compound=O=C1CN(c2ncc(-c3nc4ccncc4n3-c3ccc(F)cc3)cn2)CCN1 observed_measurement="< 5.00"
compound=Fc1cc(Cl)ccc1-n1c(-c2ccc(N3CCOCC3)nc2)nc2ccncc21 observed_measurement="< 5.00"
compound=O=C1CN(c2ncc(-c3cc4ccncc4n3-c3ccc(Cl)cc3)cn2)CCN1 observed_measurement="< 5.00"
compound=Fc1ccc(-n2c(-c3cnc(NC4CCOCC4)nc3)nc3ccncc32)cc1 observed_measurement="< 5.00"
compound="CC1CN(c2ccc(-c3nc4ccncc4n3-c3ccc(F)cc3)cn2)CCO1 (centres unmarked)" observed_measurement="< 5.00"
compound=Clc1ccc(-n2c(-c3cnc(NC4CCOCC4)nc3)nc3ccncc32)cc1 observed_measurement="< 5.00"
compound=Clc1ccc(-n2c(-c3ccc(CN4CCOCC4)nc3)nc3ccncc32)cc1 observed_measurement="< 5.00"
compound=CC(=O)N1CCN(c2ccc(-c3nc4ccncc4n3-c3ccc(F)cc3)cn2)CC1 observed_measurement="< 5.00"

Hello, the source for this data is patent US9951068B2, in case you need it.
